- Tested on: HSkMC
- Procedure Text: cytotoxicity call (relative viability < 0.9)
- Condition Summary: 10 µM
Hit rate of the full screen: of about 39,000 compounds, about 1,500 (3.8%) were called active. Many of the other results were omitted from the sample, so actives are more common in it than they were.
Parameter call: string, one of 1 for active, -1 for inactive

Record excerpt, results attached:
Could you please tell me the result logged for `C[C@H](CO)N1C[C@H](C)[C@@H](CN(C)C(=O)Nc2ccc3c(c2)OCO3)OCCCC[C@H](C)Oc2ccc(NC(=O)C3CCCCC3)cc2C1=O` in this assay? -1

Could you please tell me the result logged for `COc1ccc(NC(=O)N(C)C[C@H]2Oc3ccc(NS(=O)(=O)c4c(C)noc4C)cc3C(=O)N([C@H](C)CO)C[C@H]2C)cc1` in this assay? -1

Could you please tell me the result logged for `CC(C)NC(=O)N(C)C[C@@H]1Oc2ccc(NS(=O)(=O)c3cccs3)cc2C(=O)N([C@H](C)CO)C[C@@H]1C` in this assay? -1

Could you please tell me the result logged for `COC(=O)[C@@]12CC[C@@H](C)[C@@H](C)[C@@H]1C1=CC[C@H]3[C@@]4(C)CC[C@@H](OC(C)=O)C(C)(C)[C@@H]4CC[C@@]3(C)[C@@]1(C)CC2` in this assay? -1

Could you please tell me the result logged for `C[C@@H]1CN([C@@H](C)CO)C(=O)c2cc(NS(=O)(=O)c3cccs3)ccc2O[C@@H](C)CCCCO[C@H]1CN(C)C(=O)Nc1cccc2ccccc12` in this assay? -1

Could you please tell me the result logged for `C[C@H]1CN([C@@H](C)CO)C(=O)Cc2cc(NC(=O)Nc3ccc(F)cc3)ccc2O[C@@H]1CN(C)CC1CCCCC1` in this assay? -1

Could you please tell me the result logged for `C[C@@H]1CN([C@H](C)CO)C(=O)Cc2cc(NC(=O)Nc3ccc(C(F)(F)F)cc3)ccc2O[C@H]1CN(C)CC1CCCCC1` in this assay? 1

Could you please tell me the result logged for `C[C@H]1CCCCO[C@H](CN(C)C(=O)Nc2cccc3ccccc23)[C@@H](C)CN([C@@H](C)CO)C(=O)c2cc(NS(=O)(=O)c3cccs3)ccc2O1` in this assay? -1

---
Could you please tell me the result logged for `C[C@@H]1CN([C@H](C)CO)C(=O)c2cccc(NC(=O)C3CCCCC3)c2O[C@@H]1CN(C)C(=O)Nc1ccc(C(F)(F)F)cc1` in this assay? -1

Could you please tell me the result logged for `CO[C@@H]1CN(C)C(=O)c2cc(NS(=O)(=O)c3cn(C)cn3)ccc2OC[C@@H](C)N(CCC(F)(F)F)C[C@H]1C` in this assay? -1

* * *

- Test system: HSkMC
- Procedure Text: cytotoxicity call (relative viability < 0.9)
- Condition Summary: 10 µM
The whole screen tested about 39,000 compounds, of which about 1,500 (3.8%) were called active. What follows is part of a selection rich in actives, with near analogues and random picks from the rest.
Measured Attribute: cytotoxicity call

Entry `Nc1ccc(CCNc2ncnc3c2ncn3[C@@H]2O[C@H](CO)[C@@H](O)[C@H]2O)cc1` : reported cytotoxicity call = ? inactive

Entry `O=C(O)c1cc(F)c2nc(N3[C@@H]4CC[C@H]3C[C@@H](OCc3c(-c5ccccc5OC(F)(F)F)noc3C3CC3)C4)sc2c1` : reported cytotoxicity call = ? inactive

Entry `Cc1noc(C)c1S(=O)(=O)Nc1ccc2c(c1)C(=O)N([C@@H](C)CO)C[C@@H](C)[C@@H](CN(C)S(=O)(=O)c1cn(C)cn1)OCCCC[C@@H](C)O2` : reported cytotoxicity call = ? inactive

* * *

- Tested on: HSkMC
- Procedure Text: cytotoxicity call (relative viability < 0.9)
- Condition Summary: 10 µM
Screen size: about 39,000 compounds; about 1,500 (3.8%) were called active. The sample as a whole holds a higher share of actives than the screen did.
Parameter call: string, one of active, inactive

Could you please tell me the result logged for `C[C@@H]1CCCCO[C@H](CN(C)Cc2ccc(C(=O)O)cc2)[C@H](C)CN([C@@H](C)CO)C(=O)c2cc(NS(=O)(=O)c3ccc(F)cc3)ccc2O1` in this assay? inactive

Could you please tell me the result logged for `C[C@H]1CN([C@@H](C)CO)S(=O)(=O)c2ccc(-c3cncnc3)cc2O[C@@H]1CN(C)C(=O)C1CCCCC1` in this assay? inactive

Could you please tell me the result logged for `C[C@@H]1CN([C@H](C)CO)C(=O)Cc2cc(NC(=O)CCCCCC(=O)Nc3ccccc3N)ccc2O[C@@H]1CN(C)C(=O)Nc1ccc(F)cc1` in this assay? inactive

Could you please tell me the result logged for `C[C@@H]1CN([C@@H](C)CO)C(=O)c2cc(NC(=O)Cc3cn(C)c4ccccc34)ccc2O[C@@H]1CN(C)C(=O)Nc1cccc2ccccc12` in this assay? active

Could you please tell me the result logged for `C[C@H](CO)N1C[C@H](C)[C@H](CN(C)S(=O)(=O)c2cccs2)Oc2c(NS(=O)(=O)c3cn(C)cn3)cccc2C1=O` in this assay? inactive

---
Could you please tell me the result logged for `O=C(Cc1ccncc1)NCC[C@H]1CC[C@H](NC(=O)C2CCOCC2)[C@H](CO)O1` in this assay? inactive

Could you please tell me the result logged for `CC(C)NC(=O)N(C)C[C@@H]1Oc2ccc(NC(=O)CCN3CCOCC3)cc2CC(=O)N([C@@H](C)CO)C[C@@H]1C` in this assay? inactive

* * *

- Test system: HSkMC
- Procedure Text: cytotoxicity call (relative viability < 0.9)
- Condition Summary: 10 µM
Hit rate of the full screen: of about 39,000 compounds, about 1,500 (3.8%) were called active. The list comes from a sample in which actives are over-represented; it also holds close analogues and randomly drawn compounds.
Measured Attribute: cytotoxicity call

For orientation, consider the following solved cases.
Write down the reported cytotoxicity call of `COc1ccccc1NC(=O)N(C)C[C@H]1Oc2ncc(C#CCN(C)C)cc2C(=O)N([C@@H](C)CO)C[C@H]1C` , test system: HSkMC. inactive

Write down the reported cytotoxicity call of `O=C(CCCCCNC(=O)OCCCCO[C@H]1C[C@@H](c2ccc(C(F)(F)F)cc2)C=C(C(=O)N2CCN(Cc3ccccc3)CC2)O1)NO` , test system: HSkMC. inactive

Write down the reported cytotoxicity call of `C[C@@H]1CCCCO[C@@H](CN(C)C(=O)c2ccccc2)[C@@H](C)CN([C@H](C)CO)C(=O)c2cc(NC(=O)Nc3ccc(C(F)(F)F)cc3)ccc2O1` , test system: HSkMC. inactive

Write down the reported cytotoxicity call of `FC(F)(F)c1cc(NC(=S)Nc2ccc(Br)cc2-c2nn[nH]n2)cc(C(F)(F)F)c1` , test system: HSkMC. active

Write down the reported cytotoxicity call of `O=C(Nc1ccc(Cl)cc1C(=O)c1ccc(Cl)cc1)c1cc(Br)ccc1NS(=O)(=O)c1ccc(Cl)cc1` , test system: HSkMC. inactive

---
Write down the reported cytotoxicity call of `O=C(N[C@@H]1C=C[C@@H](CC(=O)N2CCOCC2)O[C@@H]1CO)c1ccc2c(c1)OCO2` , test system: HSkMC. inactive

Write down the reported cytotoxicity call of `O=C(c1ccc(Cl)cc1)c1coc2c1cc(O)c1ccccc12` , test system: HSkMC. active

Write down the reported cytotoxicity call of `C[C@H](CO)N1C[C@H](C)[C@H](CN(C)C(=O)Nc2ccc(C(F)(F)F)cc2)Oc2c(NC(=O)Nc3ccc4c(c3)OCO4)cccc2C1=O` , test system: HSkMC. inactive

Write down the reported cytotoxicity call of `C[C@H]1CN([C@@H](C)CO)C(=O)c2cccc(NC(=O)Nc3cccc4ccccc34)c2O[C@H]1CN(C)C(=O)Nc1ccc(C(F)(F)F)cc1` , test system: HSkMC. active

Write down the reported cytotoxicity call of `COc1ccc2c(c1)/C(=N\O)C(=O)N2` , test system: HSkMC. inactive

Write down the reported cytotoxicity call of `Cc1ccc(S(=O)(=O)N(C)C[C@H]2Oc3ncc(C#CCC(C)C)cc3C(=O)N([C@@H](C)CO)C[C@H]2C)cc1` , test system: HSkMC. inactive

Write down the reported cytotoxicity call of `c1ccc2c(CSc3nc4ccccc4s3)cccc2c1` , test system: HSkMC. inactive

Write down the reported cytotoxicity call of `C[C@@H]1CN([C@H](C)CO)C(=O)CCCn2cc(nn2)CO[C@H]1CN(C)S(=O)(=O)c1ccc(Oc2ccccc2)nc1` , test system: HSkMC. inactive

Write down the reported cytotoxicity call of `C[C@@H]1CN([C@H](C)CO)S(=O)(=O)c2ccc(C#CC(C)(C)O)cc2O[C@H]1CN(C)C(=O)C1CCCCC1` , test system: HSkMC. inactive

Write down the reported cytotoxicity call of `C[C@@H]1CN([C@H](C)CO)C(=O)c2cc(NC(=O)CCN3CCOCC3)ccc2O[C@H]1CN(C)Cc1ccncc1` , test system: HSkMC. inactive

Write down the reported cytotoxicity call of `C[C@H](CO)N1C[C@H](C)[C@H](CN(C)C(=O)Nc2cccc3ccccc23)Oc2ccc(NC(=O)Nc3ccc4c(c3)OCO4)cc2CC1=O` , test system: HSkMC. inactive

Write down the reported cytotoxicity call of `C[C@@H]1CN([C@H](C)CO)C(=O)c2cc(NC(=O)Nc3ccccc3)ccc2O[C@@H](C)CCCCO[C@H]1CN(C)C(=O)C1CCCCC1` , test system: HSkMC. inactive

Write down the reported cytotoxicity call of `C[C@@H]1CN([C@H](C)CO)C(=O)c2cccc(NC(=O)Nc3cccc4ccccc34)c2O[C@@H]1CN(C)C(=O)Nc1ccc(C(F)(F)F)cc1` , test system: HSkMC. active

Write down the reported cytotoxicity call of `COc1ccc(S(=O)(=O)Nc2ccc3c(c2)C(=O)N([C@H](C)CO)C[C@@H](C)[C@@H](CN(C)Cc2ccncc2)O3)cc1` , test system: HSkMC (human skeletal muscle cells). inactive
